Entry source: the supplement of paper PMC10849652

Attribute: log2 fold change
system name: AAK1 (UniProt A0A096LP25)
test name: log2 fold change, soluble protein after heating vs DMSO (PISA); higher = thermal stabilisation; K562 cells, 10 uM, 30 min; active = over 0.2 and 3.5 SD of the protein, either way, in both replicates (recomputed)
The full data set covers some 7,900 targets. This sample favours those with a hit. About 0.6% of all pairs of compound and target were hits.
Give your answer as a number; write no unit.

> print(dat)
                                   compound     quantity.name  meas.value
1  CON(C)C(=O)N1N=C(c2cc(F)ccc2F)S[C@@]1(CCCN)c1ccccc1 [filanesib]  log2 fold change       -0.01
2  O=C1NC(=O)C(c2cnc3ccccn23)=C1c1cn2c3c(cc(F)cc13)CN(C(=O)N1CCCCC1)CC2  log2 fold change      -0.159
3  Cc1ccc(NC(=O)c2ccc(CN3CC[C@H](N(C)C)C3)c(C(F)(F)F)c2)cc1Nc1nccc(-c2cncnc2)n1 [bafetinib]  log2 fold change      -0.058

Lab note: need log2 fold change with AAK1 (UniProt A0A096LP25) for entry c1cc(OCCN2CCCCC2)cc(-c2n[nH]c3ccc(-c4nnc[nH]4)cc23)c1 , please look it up.
0.142

Follow-up item: Fc1ccc(Cl)cc1-c1nc(Nc2ccncc2)c2nccnc2n1
-0.027
